Test system: Inhibin beta A chain (activin A)
method: INHBA (activin A) binders on microarrays, primary screen, biochemical, small-molecule microarray, 635 nm fluorescence scan (AID 1107);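 note: mouse activin A protein probed at 4.33 µg/mL on printed slides; score merges bound-protein fluorescence near 667 nm with spot signal-to-noise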
recordedConditions: small-molecule microarray binding, higher = more signal
reportedMetric: composite z-score
// response body must contain only the number

Data request, read-out composite z-score, for "Cc1ccc(S[C@]2(C(=O)O)CC(=O)N(C3Cc4ccccc4C3)[C@@H]2c2ccc(CO)cc2)cc1"
1.19

Thanks! And CCCCN1CC=CC23O[C@@H]4/C=C\CCC(C)OC(=O)C4[C@H]2C(=O)N(C(CO)C(C)C)[C@@H]3C1=O (stereo partly drawn) ?
1.14

Now consider "COC(=O)[C@@]1(Cc2ccc(OC)cc2)[C@H]2c3cc(C(=O)N(C)C)n(Cc4ccc(Cl)c(C(F)(F)F)c4)c3C[C@H]2CN1C(=O)c1ccccc1" .
0.986

Do the same for COC1OC[C@]2(C)[C@H]3C4=C(CN2C(=O)OC(C)(C)C)[C@H](C)C(CO)C(CO)C4CC[C@@H]13 (stereo partly drawn) please
1.17

Now this one: "CC(C)N1C(=O)c2ccccc2[C@@H](C(=O)NC2CC2)[C@@H]1c1ccc(CO)cc1"
1.13

Could you do the same for CC(CO)N1C(=O)[C@@H]2[C@H]3C(=O)OCC=C[C@H]3OC23C=CCN(CCN2CCOCC2)C(=O)[C@@H]13 (stereo partly drawn) , please?
0.777

Field entry: "COc1ccc([Si](C)(C)[C@@H]2[C@@H](CC(=O)N(CCO)Cc3ccccc3)O[C@]3(C(=O)N(c4ccccc4)c4ccccc43)[C@H]2C)cc1"
0.872

What do you have for "CCCCC(=C=CC[C@@H](O)c1ccccc1OCCO)C[C@@H](O)COCc1ccccc1" ?
0.596
